Target: human mineralocorticoid receptor (MR) (Homo sapiens, UniProt P08235)
Sequence (P08235 734-984 limits assumed): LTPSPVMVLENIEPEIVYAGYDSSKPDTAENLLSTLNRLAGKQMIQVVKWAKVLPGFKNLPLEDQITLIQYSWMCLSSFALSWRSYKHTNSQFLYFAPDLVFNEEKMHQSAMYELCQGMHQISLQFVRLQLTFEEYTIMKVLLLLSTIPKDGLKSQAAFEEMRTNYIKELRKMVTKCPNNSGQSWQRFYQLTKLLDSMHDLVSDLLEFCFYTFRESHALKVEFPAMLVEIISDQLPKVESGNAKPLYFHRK
Assay: Cellular in vitro assay, GAL4-MR chimera luciferase reporter in CHO K1 cells (inhibitory MR activity)
Details: GAL4-MR ligand-binding domain chimera, agonist aldosterone
pIC50: −log10 of the molar value.
RESULT_TYPE: pIC50

{"COMPOUND": "CS(=O)(=O)Nc1cccc2c(C(CCO)c3ccc(C(F)(F)F)cc3)c[nH]c12 (stereo not drawn)", "pIC50": 6.48}
{"COMPOUND": "Cc1cccc2c(C(CCCC#N)c3ccc(C(F)(F)F)cc3)c[nH]c12 (single isomer, unassigned)", "pIC50": 6.70}
{"COMPOUND": "CCc1cccc2c(C(CCC#N)c3ccc4ccccc4c3)c[nH]c12 (stereo not drawn)", "pIC50": 7.05}
{"COMPOUND": "CCc1cccc2c(C(CCCC#N)c3ccc(C(F)(F)F)cc3)c[nH]c12 (single isomer, unassigned)", "pIC50": 6.85}

I: CS(=O)(=O)Nc1cccc2c(C(CCC#N)c3ccc(C(F)(F)F)cc3)c[nH]c12 (single isomer, unassigned)
II: CCc1cccc2c(C(CCCO)c3ccc(C(F)(F)F)cc3)c[nH]c12 (single isomer, unassigned)
Q: Lab notebook, comparison: I versus II , higher pIC50 goes to which? Mark your answer with the label of the selected entry.
Ans: I
(I: 7.70, II: 6.38)

----------
target: androgen receptor (AR) (Homo sapiens); construct: of the androgen receptor (AR, amino acids 667-919); experiment: Cellular in vitro assay, GAL4-AR chimera luciferase reporter in CHO K1 cells (selectivity); conditions: GAL4-AR ligand-binding domain chimera, agonist dihydrotestosterone
Sequence (P10275 667-919): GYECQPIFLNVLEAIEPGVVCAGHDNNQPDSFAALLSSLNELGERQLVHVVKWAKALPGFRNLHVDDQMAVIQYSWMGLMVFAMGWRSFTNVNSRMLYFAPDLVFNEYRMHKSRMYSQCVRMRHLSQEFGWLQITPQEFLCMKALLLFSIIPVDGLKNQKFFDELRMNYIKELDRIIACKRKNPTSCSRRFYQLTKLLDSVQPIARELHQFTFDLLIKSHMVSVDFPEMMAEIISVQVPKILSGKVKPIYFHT
RESULT_TYPE: IC50 (nM)

a: CCc1cccc2c(C(CCCC#N)c3ccc(C(F)(F)F)cc3)c[nH]c12 (single isomer, unassigned)
b: CCc1cccc2c(C(CCC#N)c3ccc4ccccc4c3)c[nH]c12 (centres unmarked)
Q: Lab notebook, comparison: a versus b , higher IC50 goes to which? Mark your answer with the label of the selected entry.
Ans: b
(b: 4200 nM, a: 2000 nM)

----------
biological target: progesterone receptor (PR) (Homo sapiens, UniProt P06401); construct: of the progesterone receptor (PR, amino acids 680-933); assay: Cellular in vitro assay, GAL4-PR chimera luciferase reporter in CHO K1 cells (selectivity); conditions: GAL4-PR ligand-binding domain chimera, agonist progesterone
Sequence (P06401 680-933): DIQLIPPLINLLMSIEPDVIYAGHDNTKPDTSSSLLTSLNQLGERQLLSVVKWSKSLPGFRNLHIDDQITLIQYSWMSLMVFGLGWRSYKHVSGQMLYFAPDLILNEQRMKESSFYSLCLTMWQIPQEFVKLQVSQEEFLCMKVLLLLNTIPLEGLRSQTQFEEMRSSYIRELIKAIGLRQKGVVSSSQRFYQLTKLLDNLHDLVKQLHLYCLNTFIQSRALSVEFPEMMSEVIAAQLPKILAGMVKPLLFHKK
pIC50: −log10 of the molar value.
RESULT_TYPE: pIC50

Reference set, count: 2
{"COMPOUND": "CCc1cccc2c(C(CCCC#N)c3ccc(C(F)(F)F)cc3)c[nH]c12 (single isomer, unassigned)", "RECORDED_RESULT": 5.76}
{"COMPOUND": "Cc1cccc2c(C(CCCC#N)c3ccc(C(F)(F)F)cc3)c[nH]c12 (single isomer, unassigned)", "RECORDED_RESULT": 5.57}

a: CCc1cccc2c(C(CCC#N)c3ccc4ccccc4c3)c[nH]c12 (centres unmarked)
b: CCc1cccc2c(C(CCCO)c3ccc(C(F)(F)F)cc3)c[nH]c12 (single isomer, unassigned)
Q: Lab notebook, comparison: a versus b , higher pIC50 goes to which? Mark your answer with the label of the selected entry.
Ans: a
(a: 5.47, b: 5.23)
